Consider the following molecules; for each one, report its normalized growth.
- ASSAY PROCEDURE: chemical genetic growth profiling, strain panel (AID 1159580);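 also: tested at 20 µM; growth read once vehicle control cultures reached saturation at 30 °C; 1 = growth at the plate median or of vehicle wells; lower values mean less growth of the strain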
- PROTOCOL CONDITIONS: S. cerevisiae deletion strains, growth OD, locus YAL021C, strain ccr4, stronger effect = lower value
Among all 5,500 compounds or so, about 2,000 (36%) were called active. Another 18% or so got no clear call; they are omitted. Some of the results follow.

## Task What normalized growth value was documented for this molecule, O=C(c1ccccc1)c1ccc2n1CCC2C(=O)O (centres undefined) ?
## Result 0.98 (inactive)

## Task Which normalized growth is reported for this molecule? O=C1c2cccc(O)c2C(=O)c2c(O)cccc21
## Result 0.837 (active)

## Task Fill in: normalized growth of CC1=C(C(=O)O)N2C(=O)[C@@H](NC(=O)[C@@H](N)c3ccc(O)cc3)[C@H]2SC1 is ___
## Result 1.02 (inactive)

## Task Please report the recorded normalized growth for C=CC[C@@H]1/C=C(\C)C[C@H](C)C[C@H](OC)[C@H]2O[C@@](O)(C(=O)C(=O)N3CCCC[C@H]3C(=O)O[C@H](/C(C)=C/[C@@H]3CC[C@@H](O)[C@H](OC)C3)[C@H](C)[C@@H](O)CC1=O)[C@H](C)C[C@@H]2OC .
## Result 0.844 (active)

## Task Value lookup for normalized growth; key = Cc1cc(O)c2c(c1)C(=O)c1cccc(O)c1C2=O
## Result 0.991 (inactive)

## Task Endpoint output: normalized growth of Oc1cc2c(cc1O)C(c1ccccc1)CNCC2 (centres undefined) . Value?
## Result 0.972 (inactive)

## Task Which measured normalized growth value corresponds to O=C1C=CC(=O)c2c(O)cccc21 ?
## Result 1.01 (inactive)

## Task Any idea what its normalized growth is? The molecule is CC(C)CCCC(C)N (centres undefined)
## Result 1.03 (inactive)

## Task normalized growth lookup needed for CC(=O)NC1C(O)OC(COS(=O)(=O)O)C(OC2OC(C(=O)O)C(OC3OC(CO)C(OC4OC(C(=O)O)C(O)C(O)C4OS(=O)(=O)O)C(OS(=O)(=O)O)C3NS(=O)(=O)O)C(O)C2OS(=O)(=O)O)C1O (centres undefined) , thanks.
## Result 0.991 (inactive)
